Assay: in vivo
Settings: female, New Zealand White, rabbit, iv, 3 mg/kg, Cmax
Measurement Label: Cmax
Don't forget the unit after the value.

Quick one: Cmax of O=C(NN1C(=O)C2C3C=CC(C4CC34)C2C1=O)c1ccc(C(F)(F)F)cc1 (stereo not shown) [ST-246] ?
3340 ng/mL

---

Test: in vivo
Conditions: both, cynomolgus monkey, po, 0.3 mg/kg, AUCINF—obs
Measurement Label: AUC(0-inf) (ng·h/mL)
One number for each entry, in ng·h/mL.

Quick one: AUC(0-inf) of O=C(NN1C(=O)C2C3C=CC(C4CC34)C2C1=O)c1ccc(C(F)(F)F)cc1 (stereo not shown) ?
380

These measurements were taken from patent US9907859B2.
